Tested on: HeLa
Assay: Cytotoxicity against human HeLa cells assessed as reduction in cell viability using compound addition to cell culture cells in log phase of growth and incubated for 48 hrs by MTT assay
Assay type: functional, cell-based
Settings: Homo sapiens, HeLa, 48 h; read-out: IC50
measured-attribute: pIC50
# pIC50 = -log10(concentration in molar units)

Ask | Give HeLa pIC50 for `CCCCCCCCCCCC(=O)OCC1=C(C)C[C@H]([C@@H](C)[C@H]2CC[C@H]3[C@@H]4C[C@H]5O[C@]56[C@@H](O)C=CC(=O)[C@]6(C)[C@H]4CC[C@]23C)OC1=O`
Reply | 5.33

New cases:
Ask | Give HeLa pIC50 for `CC1=C(C=O)C(=O)O[C@@H]([C@@H](C)[C@H]2CC[C@H]3[C@@H]4C[C@H]5O[C@]56[C@@H](O)C=CC(=O)[C@]6(C)[C@H]4CC[C@]23C)C1`
Reply | 4.96
